Assay: Solubility experiments in different media, crystal forms of salts
Format: physicochemical
Parameters: unit not given here
Settings: FeSSIF (fed-state artificial simulated intestinal fluid); about 2 mg suspended for 24 hours; 37°C; HPLC, external standard method
Source text: […]
Structures can show the parent of a compound that is named as a salt.
I'd be grateful if you could share measured thermodynamic solubility FeSSIF for these entries.
Give a plain numeric answer without units written out.

Any idea what its thermodynamic solubility FeSSIF is? The compound is CC(C)c1c(F)cc(N2C[C@H](N(C)S(C)(=O)=O)[C@H]2C)c2cnc(Nc3ccnc(-c4cn(C)nc4Cl)n3)cc12 [crystal form A of salicylate]
0.672

Any idea what its thermodynamic solubility FeSSIF is? The compound is CC(C)c1c(F)cc(N2C[C@H](N(C)S(C)(=O)=O)[C@H]2C)c2cnc(Nc3ccnc(-c4cn(C)nc4Cl)n3)cc12 [crystal form A of oxalate]
1.228

Any idea what its thermodynamic solubility FeSSIF is? The compound is CC(C)c1c(F)cc(N2C[C@H](N(C)S(C)(=O)=O)[C@H]2C)c2cnc(Nc3ccnc(-c4cn(C)nc4Cl)n3)cc12 [crystal form A of sulphate]
1.114
